Source of measurements: paper doi:10.1101/2019.12.17.877662

- subject-of-test: T1, TtSSB (Thermus thermophilus, UniProt Q5SLP9 1-263)
- T1 sequence: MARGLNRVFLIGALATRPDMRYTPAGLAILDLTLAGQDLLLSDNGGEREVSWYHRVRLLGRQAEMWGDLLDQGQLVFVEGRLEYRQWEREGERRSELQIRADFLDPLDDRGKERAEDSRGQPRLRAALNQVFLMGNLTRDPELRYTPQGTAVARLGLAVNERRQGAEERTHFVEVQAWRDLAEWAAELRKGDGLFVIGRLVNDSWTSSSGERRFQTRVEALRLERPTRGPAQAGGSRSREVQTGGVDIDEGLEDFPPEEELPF
- assay-method-text: BLI
quantity-name: Kd

Exam item: What does the record list as Kd for GCAATGAAGTACGCTTGCCAGCTGCAGTCATGATTG (ssDNA) [biotinylated 36-mer ssDNA] ?
Marked response: ~7.2 nM
